// data source = PubChem BioAssay (NCI)

Each item that follows carries a reported growth.
Test system: A549/ATCC NSCLC
assay: NCI-60 one-dose screen, 48 h (100 = growth as untreated, 0 = no growth, -100 = all killed)
testParameters: 10 µM unless noted
The panel holds about 83,000 compounds, 20% with a hit somewhere; the sample as a whole holds those more often. Active and inactive are the calls of the source. The calls were made as follows: active = growth percent below 10; inactive = the rest.

| smilesCode | growth |
| --- | --- |
| COc1ccccc1/C=C1\Oc2ccc(O)c(O)c2C1=O | 101% (inactive) |
| Brc1ccc(-c2cc(-c3ccc4c(c3)OC=CO4)n[nH]2)s1 | 89.9% (inactive) |

Form field growth, entry Cc1csc(/N=C(N)/N=C(\N)c2cccs2)n1 : 102% (inactive)

Form field growth, entry Cc1ccc(S(=O)(=O)c2nc(-c3ccc(F)cc3)oc2S(C)(=O)=O)cc1 : 96.4% (inactive)

Form field growth, entry CC1(C)CC[C@]2(C(=O)O)CC[C@]3(C)C(=CC[C@@H]4[C@@]5(C)CC[C@H](NOCCCN)C(C)(C)[C@@H]5CC[C@]43C)[C@@H]2C1 : 77.9% (inactive)

Form field growth, entry CN1CCN(Cc2ccc(NC(=O)c3cncc(C#Cc4cnc5ccc(N)nn45)c3)cc2C(F)(F)F)CC1 : 38.2% (inactive)
